Quick reference for OD450 among some binders
- System: T1, Peptide A (human PAR-2), unbiotinylated (Human)
- T1 construct: also called Peptide A No Biotin
- T1 peptide: GTNRSSKGRSLIGKVDGT
- Test: peptide ELISA

{"Binder": "H1M616N (antibody, V domains shown, chimeric: human variable, mouse constant domains) VH: EVQLVESGGGLAQPGRSLRVSCSASGFNFDDYAMHWVRQAPGKGLEWVSGISWNSGSRGYADSVKGRFTISRDNAKNSLYLQMNSLRAEDTALYYCVKENWAFEYWGQGTLVTVSS VL: DIVMTQTPLSSPVTLGQPASISCRSSHSLVHSDGSTYLSWLQQRPGQPPRLLIYKISNRFSGVPDRFSGSGAGTDFTLKISRVEAEDVGLYYCMQATQFPYTFGQGTKLEIK", "Reported Metric": "OD450", "Experimental Value": "1 to 4 od"}

### Prompt Give the measured OD450 of H2M591N (antibody, V domains shown, chimeric: human variable, mouse constant domains) VH: EVQLLESGGGLVQPGGSLRLSCATSGFTFSRYTMTWVRQAPGKGLFWVSGIGGSGGRAYYADSVKGRFTLSRDNSKNTLYLQMNSLRAEDTAVYYCAKEGDSGYDLDYWGRGTLVTVSS VL: DIQMTQYPSSLSASVGDRVTITCRARQGISNYLAWLQQKPGKAPKSLIYAASSLQRGVPSKFSGSGSGTDFTLTISSLQPEDSATYYCQQYKISPLTFGGGTKVEIK .
### Response 1 to 4 od

### Prompt Try H2M611N (antibody, V domains shown, chimeric: human variable, mouse constant domains) VH: EVQLLESGGGLVQPGGSLRLSCAASGFTFSSYAMTWVRQAPGKGLYWVSAISGSGGSAYYADSVKGRFTISRDNSKNTLYLQMNSLRAEDTAVYYCAKEGDSGYDLDYWGRGTLVTVSS VL: DIQMTQSPSSLSASVGDRVTITCRARQGISNYLAWLQQKPGKAPKSLIYAASSLQSGVPSKFSGSGSGTDFTLTISSLQPEDFATYYCQQYKSSPLTFGGGTKVEIK next.
### Response 1 to 4 od
